The measured values listed here are drawn from ChEMBL document CHEMBL1201862.

Tested on: A498
method: NCI tumour cell line growth inhibition, 48 h
Active and inactive are the calls of the source. Cut-off read from the data, not from the text of the source: active = GI50 up to about 1.1 µM and inactive = higher.
attributeMeasured: GI50

CC1=CC23C(COC(=O)C24CO4)C(C(=O)O)=CC3C1C (stereo unspecified)    23.3 µM (inactive)
NCCCN1CCN(c2ccccc2)CC1    > 100 µM (inactive)
Nc1ccc(CCN2CCN(CCCc3ccccc3)CC2)cc1    > 100 µM (inactive)
CC(C)N(C(=O)c1cccc(C(=O)N(C(C)C)C(C)C)c1)C(C)C    > 100 µM (inactive)
OC1(C(Sc2cc(C(F)(F)F)cc(C(F)(F)F)c2)Sc2cc(C(F)(F)F)cc(C(F)(F)F)c2)C=CCCC1 (stereo unspecified)    1.35 µM (inactive)
Nc1c2c(nc3ccccc13)CCCc1ccccc1-2    8.43 µM (inactive)
C[C@@]12C=CC3C/C(=N\C(N)=S)C=C(CCCC4OCCO4)[C@]3(CC1)C2 (stereo partly specified)    15.5 µM (inactive)
Cc1cn(C2CC(OP(=O)(O)OCC3OC(n4c[n+]([BH2-]C#N)c5c(=O)[nH]c(N)nc54)CC3O)C(CO)O2)c(=O)[nH]c1=O (stereo unspecified)    > 100 µM (inactive)
CCOC(=O)c1sc2nc(SC)nc3c2c1NCN3c1ccccc1Cl    37.8 µM (inactive)
FC(F)(F)c1ccc2nc(Sc3ccc4ccccc4c3)cnc2c1    28.6 µM (inactive)

// query For the molecule CC(C)(C)OC(=O)Cn1ncn(NC(=O)Cc2ccccc2)c1=S , give its reported GI50.
// result > 10 µM (inactive)
